Observed MBC99.9 values for Pseudomonas aeruginosa are listed in what follows.
Calls of active or inactive are those of the source.

NC(N)=O    inactive
O=S(=O)(O)SSS(=O)(=O)O    inactive
O=S(=O)(O)O    inactive
O=S(=O)(O)SS(=O)(=O)O    inactive

Write down measured MBC99.9 (Pseudomonas aeruginosa) for this molecule. O=S(O)(O)=S
inactive

Reference source for all entries: ChEMBL document CHEMBL3751744
